assay: nonspecific enhancement of M3R calcium signal without RGS4 – HEK293 M3R, non-induced cells, counter-screen for RGS4 inhibitor project, confirmation (AID 493000); details: carbachol calcium Fluo-4, at 10 µM, submaximal (EC20) carbachol stimulus; active compounds read high, buffer wells 0%, carbachol control wells 100%;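 note: RGS4 induction absent so cells express M3R without RGS4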;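 for activity (percent): higher means more calcium signal and flags a non-specific hit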
Out of some 1,900 compounds screened, about 390 (21%) were called active. The list is a sample of the results.

MOLECULE	activity (percent)
C=C(C)C(=O)O[C@H]1C/C(C)=C\C(=O)/C=C(\C)[C@H](O)[C@@H]2OC(=O)C(=C)[C@@H]21	inactive
Cc1cc(-c2n[nH]c(=S)n2/N=C/C(Br)=C/c2ccccc2)n[nH]1	inactive
Cc1nc(-c2ccccc2)sc1C(=O)/C=C/c1ccccc1	inactive
Cc1ccsc1/C=N/n1c(=S)[nH]nc(C)c1=O	inactive
O=C(/C=C/Sc1ncn[nH]1)c1ccc(Cl)cc1	32.5% (active)
O=S(=O)(Nc1nccs1)c1ccc2c(c1)OCCO2	inactive
O=C(NCCCc1ccccc1)C1CCC(CNc2c(N3CCCCC3)c(=O)c2=O)CC1 (centres undefined)	inactive
COc1ccc(C(C[N+](=O)[O-])n2nc(C)cc2C)cc1 (centres undefined)	inactive
O=[N+]([O-])c1c(NCCO)cc(Sc2nc3ccccc3s2)c2nonc12	inactive
CCOc1ccc(/C=N/NC(=O)CSc2ccccn2)cc1O	inactive
CCc1ccc(C2C(C#N)=C(N)N(N3CCOCC3)C3=C2C(=O)CC(C)(C)C3)s1 (centres undefined)	inactive
C#CCOc1ccc(/C=C2/C(=O)ON=C2C)cc1OCC	inactive
O=C(CCN1CCc2ccccc2C(O)(c2ccccc2)C1)c1ccc2c(c1)OCCO2 (centres undefined)	34.5% (active)
CCOc1ccc(NC(=O)C/C(C)=N/NC(=O)Cc2cccs2)cc1	inactive
Cc1noc(NS(=O)(=O)c2ccc(N/C=C/C(=O)c3ccccc3)cc2)c1C	inactive
Cc1ccc(Nc2nc(N)nc(CSc3nnc(C)s3)n2)cc1	inactive
C#CCOc1ccc(/C=C2/C(=O)NN(c3ccccc3)C2=O)cc1OC	inactive
O=C(/C=C/c1ccc(Cl)c([N+](=O)[O-])c1)c1cccnc1	43.5% (active)
COc1ccc(/C=C/C(=O)c2ccc(OC)cc2O)cc1	inactive
COc1ccc(-c2csc(Nc3ccc(O)cc3)n2)cc1	inactive
O=C(NCc1ccccc1)c1ccc(S(=O)(=O)Nc2cccc(C(F)(F)F)c2)cc1	inactive
COc1cc(Br)cc(/C=N/c2ncn[nH]2)c1O	inactive
CCOC(=O)[C@@H]1[C@H]2COc3ccc(Br)cc3[C@H]2N2C(=O)N(c3ccc(Cl)cc3)C(=O)[C@@]12C	inactive
Cc1ccc(C)c(Cn2nnc3c(=O)[nH]c(C(=O)Nc4ccc(F)cc4)nc32)c1	45.5% (active)
Cc1ccc(SC(CC(=O)c2ccc(C(C)(C)C)cc2)C(=O)O)cc1 (centres undefined)	inactive
C[C@H](NC(=O)c1nc[nH]c1C(=O)NCC(=O)OC(C)(C)C)c1ccccc1	inactive
Cc1ccc(Sc2cc(N3CCOCC3)nc(-c3ccccc3)n2)cc1	55.5% (active)
Cc1ccc(S/C(=N\S(=O)(=O)c2ccc(Cl)cc2)c2ccccc2)cc1	inactive
CNCC(O)c1ccc(O)c(O)c1 (centres undefined)	inactive
O=C(COC(=O)c1cccc(Br)c1)Nc1cccc2c1C(=O)c1ccccc1C2=O	inactive
COC(=O)C1CCN(C(=O)c2cc(=O)[nH]c3ccccc23)CC1	inactive
Nc1ccccc1SC(C[N+](=O)[O-])c1ccccc1 (centres undefined)	inactive
Brc1ccc(-c2csc(N/N=C/c3cccnc3)n2)cc1	inactive
Cc1nc(Nc2ccc(S(=O)(=O)N3CCCC3)cc2)c2nnn(Cc3ccccc3)c2n1	inactive
C=CCSc1nc2c(c(=O)[nH]1)C(C(C)C)C(C#N)=C(N)O2 (centres undefined)	49.5% (active)
CC(=O)Nc1ccc(S(=O)(=O)Nc2nc(-c3ccc(C(C)(C)C)cc3)cs2)cc1	51% (active)
O=C(O)c1ccc2c(c1)C(=O)N(c1ccc(/C=C/C(=O)c3ccccc3)cc1)C2=O	32% (active)
COC(=O)Cn1cc(/C=C/[N+](=O)[O-])c2ccccc21	38% (active)
CC(C)Cc1nc(Nc2ccc(S(=O)(=O)N3CCCC3)cc2)c2nnn(Cc3ccccc3)c2n1	inactive
O=C(Nc1ccc(Cl)cc1)OCc1cc(-c2ccccc2)on1	inactive
COc1ccccc1C1C(C#N)=C(N)Oc2c1c(-c1ccccc1)nn2-c1ccccc1 (centres undefined)	34.5% (active)
Cc1nn2c(=O)cc(COC(=O)c3ccc(NC(=O)C(C)(C)C)cc3)nc2s1	inactive
CCc1ccc2oc(-c3ccc(N)cc3)nc2c1	37.5% (active)
O=C1NC(c2ccc(-c3ccccc3[N+](=O)[O-])o2)C(C(=O)c2ccc(Cl)cc2)C(O)(C(F)(F)F)N1 (centres undefined)	38.5% (active)
